test: Hemolytic activity in red blood cells at 100 uM
Type: ADME, cell-based, Erythrocyte
condition: read-out: Activity
# hemolysis at 100 µM values compiled below

Below, each entry is followed by its recorded hemolysis at 100 µM result.
[[record]]
input_smiles = "CCCCN(CCCC)CCCNc1nc(NCCc2ccc(OC)cc2)nc(NC23CC4CC(CC(C4)C2)C3)n1"
reported_endpoint = "hemolysis at 100 µM"
measured_result = "< 10%"

[[record]]
input_smiles = "CCCCN(CCCC)CCCNc1nc(NCCCN(CCCC)CCCC)nc(NC23CC4CC(CC(C4)C2)C3)n1"
reported_endpoint = "hemolysis at 100 µM"
measured_result = "< 10%"


// below: hemolysis at 100 µM requested for another compound
Q: Item under review: "CCCCN(CCCC)CCCNc1nc(NC2CCCCC2)nc(NC23CC4CC(CC(C4)C2)C3)n1" . Reported hemolysis at 100 µM?
Result: < 10%
